Quick reference for IC50 among some molecules
- testedSystem: NLRP3 inflammasome (Homo sapiens, UniProt Q96P20)
- Sequence (Q96P20 whole entry): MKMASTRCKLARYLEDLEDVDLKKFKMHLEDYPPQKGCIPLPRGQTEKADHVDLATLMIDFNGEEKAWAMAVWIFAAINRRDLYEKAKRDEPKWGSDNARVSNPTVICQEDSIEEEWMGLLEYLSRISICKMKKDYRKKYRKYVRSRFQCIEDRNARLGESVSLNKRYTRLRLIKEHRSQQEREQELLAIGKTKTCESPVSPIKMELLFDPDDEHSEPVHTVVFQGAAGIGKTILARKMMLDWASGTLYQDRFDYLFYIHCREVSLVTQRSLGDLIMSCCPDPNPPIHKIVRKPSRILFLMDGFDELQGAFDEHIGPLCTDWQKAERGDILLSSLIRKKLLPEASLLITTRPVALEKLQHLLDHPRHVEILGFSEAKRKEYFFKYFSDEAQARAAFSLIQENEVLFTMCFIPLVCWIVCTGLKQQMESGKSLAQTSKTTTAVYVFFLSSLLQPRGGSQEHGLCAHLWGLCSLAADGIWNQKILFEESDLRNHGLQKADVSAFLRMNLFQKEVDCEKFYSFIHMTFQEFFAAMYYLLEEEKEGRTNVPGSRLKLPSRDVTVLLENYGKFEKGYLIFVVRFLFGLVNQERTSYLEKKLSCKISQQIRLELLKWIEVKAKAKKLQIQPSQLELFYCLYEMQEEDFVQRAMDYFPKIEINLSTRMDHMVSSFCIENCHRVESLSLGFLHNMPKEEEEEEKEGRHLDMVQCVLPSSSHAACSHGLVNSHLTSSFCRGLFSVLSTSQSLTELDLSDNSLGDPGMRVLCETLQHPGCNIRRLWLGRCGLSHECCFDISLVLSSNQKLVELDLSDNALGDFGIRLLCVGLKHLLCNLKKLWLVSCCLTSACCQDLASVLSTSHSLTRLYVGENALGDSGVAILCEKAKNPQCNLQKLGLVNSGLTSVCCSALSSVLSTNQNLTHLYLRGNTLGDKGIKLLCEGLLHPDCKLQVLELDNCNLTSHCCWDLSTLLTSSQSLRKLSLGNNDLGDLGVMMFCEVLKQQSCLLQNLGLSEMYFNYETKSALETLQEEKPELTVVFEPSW
- assayInfo: NLRP3 inflammasome activation assay in PBMCs, IL-1β release (ELISA / HTRF)
- Assay type: cell-based
- Set-up: were freshly isolated from human peripheral blood from healthy donors; StemCells Technologies; host or cells: primary human PBMCs, LPS-primed, nigericin-stimulated
- condition: LPS primed, 10 uM nigericin, read-out: PBMC IL-1 β IC50
- Description: Some of the following assays were used to determine the inhibitory activity of the compounds on the NLRP3 inflammasome using a common inflammasome activation stimuli—nigericin. […] For ELISA assays cells were seeded into 96-well plates. Post study, supernatants were removed and the levels of mature IL-1β, IL18 and TNFα (Quantikine ELISA, R&D systems) were measured in cell conditioned media by ELISA according to manufacturer's instructions. […]

Report measured IC50; entry is Cn1cc(S(N)(=O)=NC(=O)Nc2c3c(cc4c2CCC4)CCC3)cn1 (centres unmarked)
100 to 1000 nM
